test system: HCT-116 colon; assay: NCI tumour cell line growth inhibition, 48 h; in the data active = GI50 below about 0.43 µM; inactive = the rest
Classes to choose from: active, inactive

Observe how each entry below is paired with its result.
compound	assigned-label
COc1cc(C2c3cc4c(cc3[C@@H](Nc3cccc(O)c3)C3COC(=O)[C@H]23)OCO4)cc(OC)c1O (stereo partly drawn)	inactive
COc1cc(C(=O)N/N=C/c2cccc([N+](=O)[O-])c2)cc(OC)c1OC	inactive
COc1ccc(N=C2NN=C(c3c[nH]c4ccccc34)CS2)cc1OC	inactive
O=[N+]([O-])O.[NH-]C1CCCCC1[NH-].[NH-]C1CCCCC1[NH-].[NH-]C1CCCCC1[NH-].[OH-].[OH-].[OH-].[Pt+4].[Pt+4].[Pt+4] (stereo not drawn)	active
O=C1/C(=C/c2ccccc2)CN(C(=O)Oc2ccc([N+](=O)[O-])cc2)C/C1=C\c1ccccc1	active
CC(C)n1nc(C#Cc2cccc(NC(=O)c3cccc(C(F)(F)F)c3)c2)c2c(N)ncnc21	active
CCCCCCCCCCCCCCCCCC1=NC(C)(C)CN1CCO	inactive

Now take the following compound into account.
Enquiry: Please share the test call associated with `C=CC[PH+](c1ccccc1)c1ccccc1.C=CC[PH+](c1ccccc1)c1ccccc1.[Cl][Pt][Cl]` .
Return: inactive
